Tested on: NCI-H1975
test_name: Cell proliferation assay (MTT) against cancer cell line NCI-H1975
Format: cell-based
condition: Homo sapiens, NCI-H1975, 72 hours treatment, quantity not given
pIC50 values for the compounds below.
# pIC50 is unitless: minus log10 of the molar concentration; print number only

Example entries begin here.
C=CC(=O)Nc1cccc(Nc2nc(Nc3ccc(N4CCN(CC)CC4)cc3OC)ncc2C(F)(F)F)c1 :: 6.82
C=CC(=O)Nc1cccc(Nc2nc(Nc3ccc(N4CCN(C(C)=O)CC4)cc3OC)ncc2C(F)(F)F)c1 [CO-1686, reference compound] :: 6.04

### Prompt What does the data say about its pIC50? Entry: C=CC(=O)Nc1cccc(Oc2nc(Nc3ccc(N4CCN(C)CC4)cc3OC)ncc2Cl)c1 [WZ4002, reference compound]
### Response 7.17

====

measurement_target: EGFR (E746-A750del) (Homo sapiens (Human), UniProt P00533, DEL746-750)
Sequence (P00533 other isoform, or with tags, fused parts or gaps del E746-A750): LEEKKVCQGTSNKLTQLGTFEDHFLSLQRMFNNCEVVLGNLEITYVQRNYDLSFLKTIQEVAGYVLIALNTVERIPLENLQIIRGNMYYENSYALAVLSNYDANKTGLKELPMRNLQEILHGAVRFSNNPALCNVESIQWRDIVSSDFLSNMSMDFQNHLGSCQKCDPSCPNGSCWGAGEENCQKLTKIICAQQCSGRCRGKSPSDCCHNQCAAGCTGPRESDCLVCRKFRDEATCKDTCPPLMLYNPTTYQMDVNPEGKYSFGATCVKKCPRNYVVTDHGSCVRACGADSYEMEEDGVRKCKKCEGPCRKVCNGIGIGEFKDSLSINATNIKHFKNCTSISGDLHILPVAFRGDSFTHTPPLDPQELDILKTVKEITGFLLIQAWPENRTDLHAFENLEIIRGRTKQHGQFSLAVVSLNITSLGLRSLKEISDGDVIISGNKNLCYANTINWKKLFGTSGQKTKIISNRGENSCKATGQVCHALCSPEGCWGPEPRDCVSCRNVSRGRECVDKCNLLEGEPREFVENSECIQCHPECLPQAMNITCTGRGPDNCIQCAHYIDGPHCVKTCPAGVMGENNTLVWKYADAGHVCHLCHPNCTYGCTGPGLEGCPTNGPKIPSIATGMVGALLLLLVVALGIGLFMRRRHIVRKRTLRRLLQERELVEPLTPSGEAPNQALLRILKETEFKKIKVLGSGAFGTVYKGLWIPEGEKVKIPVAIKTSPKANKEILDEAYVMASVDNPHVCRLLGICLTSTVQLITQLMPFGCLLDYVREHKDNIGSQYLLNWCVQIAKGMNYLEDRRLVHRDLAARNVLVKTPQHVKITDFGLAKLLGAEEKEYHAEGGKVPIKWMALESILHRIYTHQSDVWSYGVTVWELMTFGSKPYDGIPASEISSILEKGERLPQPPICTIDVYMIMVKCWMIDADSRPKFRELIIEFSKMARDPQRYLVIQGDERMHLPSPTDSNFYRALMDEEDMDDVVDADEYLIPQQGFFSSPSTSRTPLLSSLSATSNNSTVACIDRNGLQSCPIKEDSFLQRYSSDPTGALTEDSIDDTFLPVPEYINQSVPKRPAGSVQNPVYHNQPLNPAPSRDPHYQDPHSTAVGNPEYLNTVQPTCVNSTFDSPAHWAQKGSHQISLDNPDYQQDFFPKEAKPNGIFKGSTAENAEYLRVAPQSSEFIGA
test_name: In vitro EGFR (E746-A750del) kinase binding assay (Kd), similar condition
observation_type: pKd
# pKd is unitless: minus log10 of the molar concentration; print number only

C=CC(=O)Nc1cccc(Nc2nc(Nc3ccc(N4CCN(C(C)=O)CC4)cc3)ncc2C(F)(F)F)c1 :: 7.59

Please examine the following record next.
### Prompt What does the data say about its pKd? Entry: C=CC(=O)Nc1cccc(Nc2nc(Nc3ccc(N4CCN(CC)CC4)cc3)ncc2C(F)(F)F)c1
### Response 8.40
